So I've got a bunch of molecules here, and I need their Kd values.
tested-target: RAF kinases (Homo sapiens, UniProt P04049)
Sequence (P04049 whole entry): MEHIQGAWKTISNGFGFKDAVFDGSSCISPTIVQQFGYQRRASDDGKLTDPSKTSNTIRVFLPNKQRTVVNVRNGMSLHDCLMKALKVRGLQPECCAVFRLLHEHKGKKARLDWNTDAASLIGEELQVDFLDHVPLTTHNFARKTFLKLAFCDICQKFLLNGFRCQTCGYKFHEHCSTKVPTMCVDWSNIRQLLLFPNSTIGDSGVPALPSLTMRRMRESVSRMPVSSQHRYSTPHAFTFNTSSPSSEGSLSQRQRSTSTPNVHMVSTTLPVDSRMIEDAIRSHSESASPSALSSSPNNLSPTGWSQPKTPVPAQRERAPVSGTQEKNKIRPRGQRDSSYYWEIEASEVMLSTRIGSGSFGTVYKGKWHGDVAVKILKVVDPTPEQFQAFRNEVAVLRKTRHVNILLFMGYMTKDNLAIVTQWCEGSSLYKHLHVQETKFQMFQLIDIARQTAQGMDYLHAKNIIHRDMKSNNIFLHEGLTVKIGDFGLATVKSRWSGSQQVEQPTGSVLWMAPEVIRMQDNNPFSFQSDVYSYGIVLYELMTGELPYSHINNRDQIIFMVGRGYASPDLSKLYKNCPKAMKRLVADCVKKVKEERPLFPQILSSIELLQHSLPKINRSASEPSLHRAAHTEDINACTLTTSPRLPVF
protocol-notes: biochemical

Documented Kd of `COCCOc1cc(NC(=O)Nc2cccc(Oc3ncnc4cc(OCCOC)c(OC)cc34)c2)cc(C(F)(F)F)c1` : 250 to 500 nM

Item: `COc1cc2ncnc(Oc3cccc(NC(=O)Nc4cc(C(C)(C)C)nn4-c4ccncc4)c3)c2cc1OC` | Kd: 500 to 1000 nM

The value of Kd measured for the molecule `CCOc1cc2c(Sc3cccc(NC(=O)Nc4cc(C(C)(C)C)on4)c3)ncnc2cc1OC` turned out to be 250 to 500 nM

Entry `COc1cc2ncnc(Oc3cccc(NC(=O)Nc4cc(C(C)(C)C)nn4-c4ccccc4)c3F)c2cc1OC` ; Kd = 500 to 1000 nM

Lookup result for `COc1cc2ncnc(Sc3cccc(NC(=O)Nc4cc(C(F)(F)F)nn4-c4cccc(C)c4)c3)c2cc1OC` ; measured Kd: 500 to 1000 nM

The molecule listed as `COc1cc2ncnc(Oc3cccc(NC(=O)Nc4cc(C(C)C)nn4-c4ccccc4)c3)c2cc1OC` has a reported Kd of 250 to 500 nM

Please fill in: Kd reported for `COc1cc2ncnc(Oc3cccc(NC(=O)Nc4cc(C(C)(C)C)nn4-c4ccccc4F)c3)c2cc1OC` = 500 to 1000 nM

Documented Kd of `COc1cc2ncnc(Oc3cccc(NC(=O)Nc4cc(C(C)(C)C)nn4-c4ccc(C)nc4)c3)c2cc1OC` : 250 to 500 nM

Input `CCOc1cc2ncnc(Sc3cccc(NC(=O)Nc4cc(C(C)(C)C)on4)c3)c2cc1OC` . Output Kd: 250 to 500 nM

`COc1cc2ncnc(Oc3cccc(NC(=O)Nc4cc(C(C)(C)C)on4)c3)c2cc1OCCCN1CCC(CO)CC1` has a reported Kd of 500 to 1000 nM

// field: Kd; key: `COc1cc2c(Oc3cccc(NC(=O)Nc4cc(C(F)(F)F)nn4-c4ccccc4)c3)ncnc2cc1OCCN1CCOCC1` ; value = 500 to 1000 nM

Measured Kd, `COc1cc2ncnc(Oc3cccc(NC(=O)Nc4cc(C(F)(F)F)nn4-c4ccccc4)c3C)c2cc1OC` : 250 to 500 nM

`COc1ccc(-n2nc(C(C)C)cc2NC(=O)Nc2cccc(Oc3ncnc4cc(OC)c(OC)cc34)c2)cc1` has a reported Kd of 500 to 1000 nM

So for `CC(C)(C)c1cc(NC(=O)Nc2cccc(Sc3ncnc4ccc(OCCCN5CCS(=O)(=O)CC5)cc34)c2)no1` , the logged Kd turned out to be 250 to 500 nM

Given item `COc1cc2ncnc(Sc3cccc(NC(=O)Nc4cc(C(C)(C)C)nn4-c4cncc(F)c4)c3)c2cc1OC` , the value recorded as its Kd is 500 to 1000 nM

response.value for `COCCOc1cc(NC(=O)Nc2cccc(Oc3ncnc4cc(OC)c(OC)cc34)c2)ccc1C(F)(F)F` (field: Kd) = 500 to 1000 nM

Lab note: `COc1cc2ncnc(Oc3cccc(NC(=O)Nc4cc(C(C)(F)F)no4)c3)c2cc1OC` gave Kd of 250 to 500 nM

Field Kd (entry `COc1cc2ncnc(Sc3cccc(NC(=O)Nc4cc(C(C)(C)C)on4)c3)c2cc1OCCN1CCCCC1` ) reads 500 to 1000 nM

Entry `COc1cc2c(Sc3cccc(NC(=O)Nc4cc(C(C)(C)C)on4)c3)ncnc2cc1OCCN1CCOCC1` , Kd reported as 500 to 1000 nM

Note to self: Kd recorded for `CCOc1cc2ncnc(Oc3cccc(NC(=O)Nc4cc(C(C)(C)C)nn4-c4ccccc4)c3)c2cc1OC` was 500 to 1000 nM

Sure, the documented Kd for `COc1cc2c(Oc3cccc(NC(=O)Nc4cc(C(C)(C)C)on4)c3)ncnc2cc1OCCN1CCN(CCO)CC1` is 250 to 500 nM

Kd in this record for `COc1cc2c(Sc3cccc(NC(=O)Nc4cc(C(C)(C)C)on4)c3)ncnc2cc1OCCN1CCC(CO)CC1` : 500 to 1000 nM

The measured Kd associated with `COc1cc2ncnc(Sc3cccc(NC(=O)Nc4ccc(C(F)(F)F)c(F)c4)c3)c2cc1OC` reads 500 to 1000 nM

Documented Kd of `COc1cc2ncnc(Oc3cccc(NC(=O)Nc4cc(C(C)(CF)CF)no4)c3)c2cc1OC` : 500 to 1000 nM

Record `COc1cc2ncnc(Sc3cccc(NC(=O)Nc4cc(C(C)(C)C)nn4C4CCCCC4)c3)c2cc1OC` . Reported Kd: 500 to 1000 nM

Value of Kd reported for the molecule `COc1cc2ncnc(Oc3cccc(NC(=O)Nc4cc(C(C)(C)C)on4)c3)c2cc1OC` is 250 to 500 nM

Form: molecule = `COc1cc2c(Oc3cccc(NC(=O)Nc4cc(C(C)(C)C)on4)c3)ncnc2cc1OCCCN1CCN(S(C)(=O)=O)CC1` ; Kd = 250 to 500 nM

Kd in this record for `COCCOc1cc2ncnc(Sc3cccc(NC(=O)Nc4cc(C(C)(C)F)no4)c3)c2cc1OC` : 250 to 500 nM

The recorded Kd for `COc1cc2c(Oc3cccc(NC(=O)Nc4cc(C(C)(C)C)on4)c3)ncnc2cc1OCCN1CCC(CO)CC1` is 250 to 500 nM

According to the records, this molecule `COc1cc2ncnc(Oc3cccc(NC(=O)Nc4cc(C(F)(F)F)ncn4)c3)c2cc1OC` displays Kd of 250 to 500 nM

The reported value for `CCOc1cc2c(Oc3cccc(NC(=O)Nc4cc(C(C)(C)C)on4)c3)ncnc2cc1OC` in terms of Kd is 500 to 1000 nM
